Ref: patent US10815200B2

- EXPERIMENT DESCRIPTION: PET/CT dosimetry and kinetics in a healthy volunteer
- Assay type: in vivo, human
- REPORTED CONDITIONS: healthy volunteer
MEASURED QUANTITY: effective dose per injected activity
Reply with the number and its unit after it.

For the compound O=C(O)CCC(NC(=O)NC(CCCCNC(=O)C(Cc1ccc2ccccc2c1)NC(=O)c1ccc(CNC(=O)C(CCC(=O)O)NC(=O)C(CCC(=O)O)NC(=O)c2ccc([18F])nc2)cc1)C(=O)O)C(=O)O (stereo not shown) , give its measured effective dose per injected activity value.
0.0215 mSv/MBq

----------
- TESTED ON: PSMA (Homo sapiens)
- Sequence (Q04609 whole entry): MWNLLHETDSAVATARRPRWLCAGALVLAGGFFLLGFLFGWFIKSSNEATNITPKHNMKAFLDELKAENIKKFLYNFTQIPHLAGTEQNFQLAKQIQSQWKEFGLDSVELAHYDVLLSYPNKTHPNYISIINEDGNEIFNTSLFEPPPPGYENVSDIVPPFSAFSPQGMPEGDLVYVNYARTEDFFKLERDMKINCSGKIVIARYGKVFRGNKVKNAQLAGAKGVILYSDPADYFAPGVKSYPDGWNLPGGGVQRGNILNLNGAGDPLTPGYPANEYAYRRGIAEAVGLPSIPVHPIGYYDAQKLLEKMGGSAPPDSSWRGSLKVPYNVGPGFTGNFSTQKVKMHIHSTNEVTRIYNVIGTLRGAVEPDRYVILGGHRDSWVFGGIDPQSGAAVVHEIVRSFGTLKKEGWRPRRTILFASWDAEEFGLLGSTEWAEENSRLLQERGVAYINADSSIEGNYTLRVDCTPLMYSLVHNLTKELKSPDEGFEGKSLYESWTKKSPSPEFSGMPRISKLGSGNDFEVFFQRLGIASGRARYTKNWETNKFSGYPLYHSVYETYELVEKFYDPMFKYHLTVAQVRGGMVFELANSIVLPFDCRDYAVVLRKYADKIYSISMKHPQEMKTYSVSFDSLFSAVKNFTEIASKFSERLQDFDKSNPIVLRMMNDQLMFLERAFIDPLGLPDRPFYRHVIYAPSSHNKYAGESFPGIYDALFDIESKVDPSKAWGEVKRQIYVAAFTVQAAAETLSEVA
Square brackets hold non-standard residues; d marks the D form. Peptide text beside a SMILES is read from it. * marks the point of attachment. X1 = O=C(O)CCC(NC(=O)NC(CCCCN*)C(=O)O)C(=O)O; 2Nal = N[CH](Cc1ccc2ccccc2c1)C(=O)O; Nicotinoyl(6-F) = O=C(c1ccc(F)nc1)*; 4Amb = NCc1ccc(C(=O)O)cc1
Assign labels as follows, please: 1 (yes) for IC50 below 7 nM; 0 (no) for IC50 equal to or exceeding 7 nM.

Identify whether the compound O=C(O)CCC(NC(=O)NC(CCCCNC(=O)C(Cc1ccc2ccccc2c1)NC(=O)c1ccc(CNC(=O)C(CCC(=O)O)NC(=O)C(CCC(=O)O)NC(=O)c2ccc(F)nc2)cc1)C(=O)O)C(=O)O (centres unmarked) [PSMA-1024] records IC50 below 7 nM.
0 (no)

API: query returns whether the compound falls strictly under 7 nM in IC50. Query: O=C(O)CC[C@@H](NC(=O)N[C@H](CCCCNC(=O)[C@@H](Cc1ccc2ccccc2c1)NC(=O)c1ccc(CNC(=O)[C@@H](CCC(=O)O)NC(=O)c2ccnc(F)c2)cc1)C(=O)O)C(=O)O [PSMA-1015, (Glu)-(Urea)-(Lys)-(2-Nal)-(Bn)-(Glu)-FN]
1 (yes)

Bench note: check whether O=C(O)CCC(NC(=O)NC(CCCCNC(=O)C(Cc1ccc2ccccc2c1)NC(=O)CCC(NC(=O)C(CCC(=O)O)NC(=O)C(CCC(=O)O)NC(=O)c1ccc(F)nc1)C(=O)O)C(=O)O)C(=O)O (centres unmarked) [PSMA-1020] shows IC50 below 7 nM
0 (no)

Decide: IC50 of O=C(O)CCC(NC(=O)NC(CCCCNC(=O)C(Cc1ccc2ccccc2c1)NC(=O)c1ccc(CNC(=O)C(CCC(=O)O)NC(=O)C(CCC(=O)O)NC(=O)C(CCC(=O)O)NC(=O)c2ccc(F)nc2)cc1)C(=O)O)C(=O)O (centres unmarked) [PSMA-1018] ({Nicotinoyl(6-F)}-EEE[4Amb][2Nal]-X1; configuration not given here) strictly below 7 nM?
0 (no)

In plain terms, does O=C(O)CCC(NC(=O)NC(CCCCNC(=O)C(Cc1ccc2ccccc2c1)NC(=O)C1CCC(CNC(=O)C(CCC(=O)O)NC(=O)C(CCC(=O)O)NC(=O)c2ccc(F)nc2)CC1)C(=O)O)C(=O)O (centres unmarked) [PSMA-1019] come in under 7 nM for IC50?
0 (no)
